Biological target: T1, human IL-36R on cells (human, UniProt Q9HB29 20-575)
T1 sequence (looked up): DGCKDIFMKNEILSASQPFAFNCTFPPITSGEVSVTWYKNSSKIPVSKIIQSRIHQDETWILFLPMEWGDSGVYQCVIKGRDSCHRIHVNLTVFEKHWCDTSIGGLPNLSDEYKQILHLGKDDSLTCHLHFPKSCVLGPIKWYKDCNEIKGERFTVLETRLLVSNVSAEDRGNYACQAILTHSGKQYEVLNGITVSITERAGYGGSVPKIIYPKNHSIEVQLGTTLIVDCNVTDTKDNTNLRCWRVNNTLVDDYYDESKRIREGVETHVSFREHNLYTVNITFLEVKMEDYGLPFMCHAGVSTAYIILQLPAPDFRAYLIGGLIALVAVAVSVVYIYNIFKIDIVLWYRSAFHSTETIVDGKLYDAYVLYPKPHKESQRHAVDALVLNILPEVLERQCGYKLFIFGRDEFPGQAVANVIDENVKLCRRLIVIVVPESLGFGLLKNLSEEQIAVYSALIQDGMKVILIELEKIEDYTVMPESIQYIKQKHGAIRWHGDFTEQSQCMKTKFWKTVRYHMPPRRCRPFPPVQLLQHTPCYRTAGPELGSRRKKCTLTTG
Test: cell-based or functional assay
Below, each entry is listed with its recorded IC90, pNFκB, NCI/ADR-RES cells, trun-IL-36g.
Reported endpoint: IC90, pNFκB, NCI/ADR-RES cells, trun-IL-36g

Binder	Experimental result
antibody 81A1 (antibody, V domains shown, Mouse monoclonal from hybridoma; also called 81A1D1; Mouse 81A1) VH: QVQLKESGPGLVAPSQSLFITCTVSGFSLSSYEINWVRQVPGKGLEWLGVIWTGITTNYNSALISRLSISKDNSKSLVFLKMNSLQTDDTAIYYCARGTGTGFYYAMDYWGQGTSVTVSS VL: DIQMTQTTSSLSASLGDRVTISCRASQDIYKYLNWYQQKPDGTLKLLIYYTSGLHSGVPSRFSGSGSGTDFSLTISNLEPEDIATYFCQQDSKFPWTFGGDTKLEIK	2.2 nM
antibody 76E10 (antibody, V domains shown, Mouse monoclonal from hybridoma; also called 76E10E8) VH: QVQLKESGPVLVAPSQSLSITCTVSGFSLTNYGVHWVRQPPGKGLEWLGVIWPVGSTNYNSALMSRLSIHKDNSKSQVFLRMNSLQTDDTAIYYCAKMDWDDFFDYWGQGTTLTVSS VL: DIVMTQSQKFMSATVGGRVNITCKASQNVGRAVAWYQQKPGQSPKLLTHSASNRYTGVPDRFTGSGSGTDFTLTITNMQSEDLADYFCQQYSSYPLTFGAGTKLDLK	1.9 nM
antibody 73C5 (antibody, V domains shown, Mouse monoclonal from hybridoma; also called 73C5C10; Mouse 73C5) VH: QVQLKESGPGLVAPSQSLSITCTVSGFSLTNYAVHWVRQFPGKGLEWLGVIWSDGSTDFNAPFKSRLSINKDNSKSQVFFKMNSLQIDDTAIYYCARKGGYSGSWFAYWGQGTLVTVSA VL: DIVMTQSQKFLSTSVGVRVSVTCKASQDVGTNVLWYQQKIGQSPKPLIYSASYRHSGVPDRFTGSGSGTDFTLIISNVQSEDLAEYFCQQYSRYPLTFGPGTKLELK	2.5 nM
antibody 67E7 (antibody, V domains shown, Mouse monoclonal from hybridoma; also called 67E7E8) VH: EVQLQQSGAEFVRPGASVKFSCTASGFNIKDDYIHWVRQRPEQGLEWVGRIDPANGNTKYAPKFQDKATITADTSSNTAYLQLSSLTSEDTAVYYCAKSFPNNYYSYDDAFAYWGQGTLVTVSA VL: DIQMTQSPASQSASLGESVTFTCLASQTIGTWLGWYQQKPGKSPQLLIYRSTTLADGVPSRFSGSGSGTKFSFKISSLQAADFASYYCQQLYSAPYTFGGGTKLEIR	> 67 nM
